Parameter: concentration at 1 h. Scope: all listed entries.
- PROTOCOL_TEXT: Plasma level after 1 hr following 10 mg/kg dose ip
- Assay type: ADME, organism-based
- Design: dose 10 mg/kg, route intraperitoneal
- ASSAY_CONDITIONS: rat, read-out: Level
Response body: numeric value in µM, unit text excluded.

>>> value_reported("Fc1cc(Oc2cccnc2)cc(-n2nnc(-c3ccccn3)n2)c1")
7.4
>>> value_reported("CN(c1cccnc1)c1cc(F)cc(-n2nnc(-c3ccccn3)n2)c1")
3.5

// query Return reported concentration at 1 h; argument: "N#Cc1cc(F)cc(-n2nnc(-c3ccccn3)n2)c1"
// result 8.7

// query Return reported concentration at 1 h; argument: "N#Cc1cccc(-n2nnc(-c3ccccn3)n2)c1"
// result 13

// query Return reported concentration at 1 h; argument: "Fc1cc(Sc2cccnc2)cc(-n2nnc(-c3ccccn3)n2)c1"
// result 3.4

// query Return reported concentration at 1 h; argument: "Fc1cc(Cc2cccnc2)cc(-n2nnc(-c3ccccn3)n2)c1"
// result 0.9

----------
- PROTOCOL_TEXT: Maximum concentration after i.v. dosing at 1 mg/kg, p.o. dosing at 1 mg/kg. In solution of PEG 400/water in monkey
- Type: ADME, organism-based
- ASSAY_CONDITIONS: cercopithecidae, in vivo, po
VALUE_KIND: Cmax (nM)
Response body: numeric value in nM, unit text excluded.

// query Return reported Cmax; argument: "Fc1cc(Oc2cccnc2)cc(-n2nnc(-c3ccccn3)n2)c1"
// result 300

----------
- PROTOCOL_TEXT: Level in rat brain after 1 hr following 10 mg/kg dose ip
- Type: ADME, organism-based
- Design: dose 10 mg/kg, route intraperitoneal
- ASSAY_CONDITIONS: read-out: Level
Parameter: concentration at 1 h. Scope: all listed entries.
Response body: numeric value in µM, unit text excluded.

Known concentration at 1 h results, listed for orientation:
>>> value_reported("CN(c1cccnc1)c1cc(F)cc(-n2nnc(-c3ccccn3)n2)c1")
4.9
>>> value_reported("Fc1cc(Oc2cccnc2)cc(-n2nnc(-c3ccccn3)n2)c1")
6.7
>>> value_reported("N#Cc1cc(F)cc(-n2nnc(-c3ccccn3)n2)c1")
9.7
>>> value_reported("Fc1cc(Cc2cccnc2)cc(-n2nnc(-c3ccccn3)n2)c1")
2.7

// query Return reported concentration at 1 h; argument: "Fc1cc(Sc2cccnc2)cc(-n2nnc(-c3ccccn3)n2)c1"
// result 1.5

// query Return reported concentration at 1 h; argument: "N#Cc1cccc(-n2nnc(-c3ccccn3)n2)c1"
// result 12

----------
- PROTOCOL_TEXT: Maximum concentration after i.v. dosing at 1 mg/kg, p.o. dosing at 1 mg/kg. In solution of PEG 400/water in dog
- Assay type: ADME, organism-based, Canis lupus familiaris
- ASSAY_CONDITIONS: in vivo, po
VALUE_KIND: Cmax (nM)
Response body: numeric value in nM, unit text excluded.

// query Return reported Cmax; argument: "Fc1cc(Oc2cccnc2)cc(-n2nnc(-c3ccccn3)n2)c1"
// result 1400

Hey, just so you know, these numbers are from ChEMBL document CHEMBL1138008.
